# viability, T/C listing for each entry below
System: 138582-337-R-J1-PDC complex spheroid viability
Experiment: Anticancer human tumor 138582-337-R-J1-PDC patient-derived Merkel cell tumor cell line growth inhibition
Details: second compound 0.1 µM; first compound 0.00316 µM; active compounds read low

{"COMPOUND": "Nc1ncn(C2CC(O)C(CO)O2)c(=O)n1 (centres undefined) + NC1CCC(NC2CC2c2ccccc2)CC1", "ASSAY TARGET": "138582-337-R-J1-PDC complex spheroid viability", "viability, T/C": "98.7%"}
{"COMPOUND": "O=C(C=Cn1cnc(-c2cc(C(F)(F)F)cc(C(F)(F)F)c2)n1)NNc1cnccn1 + NC1CC1c1ccc(-c2cccc(O)c2)cc1", "ASSAY TARGET": "138582-337-R-J1-PDC complex spheroid viability", "viability, T/C": "60.7%"}
{"COMPOUND": "CC(C)CC(NC(=O)C(Cc1ccccc1)NC(=O)c1cnccn1)B(O)O (centres undefined) + NC1CCC(NC2CC2c2ccccc2)CC1", "ASSAY TARGET": "138582-337-R-J1-PDC complex spheroid viability", "viability, T/C": "0.5%"}
{"COMPOUND": "CC[C@@]1(O)C(=O)OCc2c1cc1n(c2=O)Cc2cc3c(CN(C)C)c(O)ccc3nc2-1 + NC1CCC(NC2CC2c2ccccc2)CC1", "ASSAY TARGET": "138582-337-R-J1-PDC complex spheroid viability", "viability, T/C": "105%"}

---

Tested on: 138582-337-R-J1-PDC complex spheroid viability
Assay: Anticancer human tumor 138582-337-R-J1-PDC cell line growth inhibition;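 also: spheroids exposed to agents for 7 days; 100% = DMSO vehicle control viability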
Details: second compound 10 µM; first compound 1 µM; active compounds read low

{"COMPOUND": "O=C(c1cc(Cc2n[nH]c(=O)c3ccccc23)ccc1F)N1CCN(C(=O)C2CC2)CC1 + NC1CC1c1ccc(-c2cccc(O)c2)cc1", "ASSAY TARGET": "138582-337-R-J1-PDC complex spheroid viability", "UNIT ANNOTATION": "%", "viability, T/C": 93.3}
{"COMPOUND": "CC1(C)CCC(CN2CCN(c3ccc(C(=O)NS(=O)(=O)c4ccc(NCC5CCOCC5)c([N+](=O)[O-])c4)c(Oc4cnc5[nH]ccc5c4)c3)CC2)=C(c2ccc(Cl)cc2)C1 + NC1CCC(NC2CC2c2ccccc2)CC1", "ASSAY TARGET": "138582-337-R-J1-PDC complex spheroid viability", "UNIT ANNOTATION": "%", "viability, T/C": 78.7}
{"COMPOUND": "CC1COCCN1c1cc(C2(S(C)(=N)=O)CC2)nc(-c2ccnc3[nH]ccc23)n1 (centres undefined) + NC1CC1c1ccc(-c2cccc(O)c2)cc1", "ASSAY TARGET": "138582-337-R-J1-PDC complex spheroid viability", "UNIT ANNOTATION": "%", "viability, T/C": 80.8}
{"COMPOUND": "COc1ccc([C@@H](O)c2cc(-c3ncnc4cc(N5CCOCC5)ccc34)c(F)cc2Cl)nn1 + NC1CC1c1ccc(-c2cccc(O)c2)cc1", "ASSAY TARGET": "138582-337-R-J1-PDC complex spheroid viability", "UNIT ANNOTATION": "%", "viability, T/C": 63.9}
{"COMPOUND": "CC1COCCN1c1cc(-c2ccnn2C)c2ccnc(-c3ccn[nH]3)c2n1 (centres undefined) + NC1CC1c1ccc(-c2cccc(O)c2)cc1", "ASSAY TARGET": "138582-337-R-J1-PDC complex spheroid viability", "UNIT ANNOTATION": "%", "viability, T/C": 26.5}
{"COMPOUND": "COc1cc(Nc2ncc3c(n2)-c2ccc(Cl)cc2C(c2c(F)cccc2OC)=NC3)ccc1C(=O)O + NC1CCC(NC2CC2c2ccccc2)CC1", "ASSAY TARGET": "138582-337-R-J1-PDC complex spheroid viability", "UNIT ANNOTATION": "%", "viability, T/C": 74.2}
{"COMPOUND": "O=C(C=Cn1cnc(-c2cc(C(F)(F)F)cc(C(F)(F)F)c2)n1)NNc1cnccn1 + NC1CC1c1ccc(-c2cccc(O)c2)cc1", "ASSAY TARGET": "138582-337-R-J1-PDC complex spheroid viability", "UNIT ANNOTATION": "%", "viability, T/C": 32.2}
{"COMPOUND": "O=C(c1cc(Cc2n[nH]c(=O)c3ccccc23)ccc1F)N1CCN(C(=O)C2CC2)CC1 + NC1CCC(NC2CC2c2ccccc2)CC1", "ASSAY TARGET": "138582-337-R-J1-PDC complex spheroid viability", "UNIT ANNOTATION": "%", "viability, T/C": 74.1}
{"COMPOUND": "O=C(C=Cn1cnc(-c2cc(C(F)(F)F)cc(C(F)(F)F)c2)n1)NNc1cnccn1 + NC1CCC(NC2CC2c2ccccc2)CC1", "ASSAY TARGET": "138582-337-R-J1-PDC complex spheroid viability", "UNIT ANNOTATION": "%", "viability, T/C": 31.8}
{"COMPOUND": "COc1ccc([C@@H](O)c2cc(-c3ncnc4cc(N5CCOCC5)ccc34)c(F)cc2Cl)nn1 + NC1CCC(NC2CC2c2ccccc2)CC1", "ASSAY TARGET": "138582-337-R-J1-PDC complex spheroid viability", "UNIT ANNOTATION": "%", "viability, T/C": 47.1}
{"COMPOUND": "CC1COCCN1c1cc(C2(S(C)(=N)=O)CC2)nc(-c2ccnc3[nH]ccc23)n1 (centres undefined) + NC1CCC(NC2CC2c2ccccc2)CC1", "ASSAY TARGET": "138582-337-R-J1-PDC complex spheroid viability", "UNIT ANNOTATION": "%", "viability, T/C": 62.1}
{"COMPOUND": "CC(C)c1c(-c2ccccc2)nc2c(C#N)c[nH]n2c1=O + NC1CC1c1ccc(-c2cccc(O)c2)cc1", "ASSAY TARGET": "138582-337-R-J1-PDC complex spheroid viability", "UNIT ANNOTATION": "%", "viability, T/C": 73.9}
{"COMPOUND": "COc1cc(Nc2ncc3c(n2)-c2ccc(Cl)cc2C(c2c(F)cccc2OC)=NC3)ccc1C(=O)O + NC1CC1c1ccc(-c2cccc(O)c2)cc1", "ASSAY TARGET": "138582-337-R-J1-PDC complex spheroid viability", "UNIT ANNOTATION": "%", "viability, T/C": 34.8}
{"COMPOUND": "CC1COCCN1c1cc(-c2ccnn2C)c2ccnc(-c3ccn[nH]3)c2n1 (centres undefined) + NC1CCC(NC2CC2c2ccccc2)CC1", "ASSAY TARGET": "138582-337-R-J1-PDC complex spheroid viability", "UNIT ANNOTATION": "%", "viability, T/C": 42.6}

The reported numbers originate from PubChem BioAssay AID1918931.
